# Test system: MV4;11 cells
# Test Details: Cell viability assay (CellTiter-Glo) in MV4;11 cells, alone or with gilteritinib
# Type: cell-based
# Experimental Parameters: Homo sapiens, MV4-11, 72 h, MV4;11 cells, without gilteritinib, 3 days, CellTiter-Glo; read-out: MV4; 11 IC50
Assay Endpoint: IC50 (nM)

Molecule	Assay Endpoint	Number
O=C(CCCC(=O)N1CCC(n2cc(-c3cnc4cccc(Br)c4n3)cn2)CC1)NCc1ccc2c(c1)CN(C1CCC(=O)NC1=O)C2=O (centres unmarked)	IC50	3130
O=C1CCC(N2C(=O)c3ccc(NCCCCCC(=O)N4CCC(c5ncccn5)CC4)cc3C2=O)C(=O)N1 (centres unmarked)	IC50	71
O=C1CCC(N2C(=O)c3ccc(NCCCCCC(=O)N4CCC(n5cc(-c6cnc7ccccc7n6)cn5)CC4)cc3C2=O)C(=O)N1 (centres unmarked)	IC50	6
O=C(COc1ccc2c(c1)CN(C1CCC(=O)NC1=O)C2=O)NCCC(=O)N1CCC(n2cc(-c3cnc4cccc(Br)c4n3)cn2)CC1 (centres unmarked)	IC50	293

(1) O=C1CCC(N2Cc3cc(CNC(=O)C(F)(F)c4cccc(N5CCC(n6cc(-c7cnc8cccc(Br)c8n7)cn6)CC5)c4)ccc3C2=O)C(=O)N1 (centres unmarked)
(2) O=C1CCC(N2C(=O)c3ccc(NCCCCCC(=O)N4CCC(n5cc(C6CC6)cn5)CC4)cc3C2=O)C(=O)N1 (centres unmarked)
(3) O=C1CCC(N2C(=O)c3ccc(NCCCCCC(=O)N4CC(n5cc(-c6cnc7cccc(Br)c7n6)cn5)C4)cc3C2=O)C(=O)N1 (centres unmarked)
(4) O=C1CCC(N2C(=O)c3ccc(NCCCCCC(=O)N4CCCCC4)cc3C2=O)C(=O)N1 (centres unmarked)
(5) O=C1CCC(N2C(=O)c3ccc(NCCCCCC(=O)N4CCC(n5cc(-c6ccc7ccccc7n6)cn5)CC4)cc3C2=O)C(=O)N1 (centres unmarked)
query: Order field: IC50 | Direction: descending (largest first) Answer format: the labels, in the requested order.
result: 3, 4, 2, 5, 1

(a) O=C1CCC(N2C(=O)c3ccc(NCCCCCC(=O)N4CCC(n5cc(C6CNc7ccccc7N6)cn5)CC4)cc3C2=O)C(=O)N1 (centres unmarked)
(b) O=C1CCC(N2Cc3cc(OCCOCCC(=O)N4CCC(n5cc(-c6cnc7cccc(Br)c7n6)cn5)CC4)ccc3C2=O)C(=O)N1 (centres unmarked)
query: Between a and b , which one shows the smaller IC50 number? Write down the label of the entry you select.
result: b

* * *

# System: MOLM-13 cells
# Test Details: Cell viability assay (CellTiter-Glo) in MOLM-13 cells, alone or with gilteritinib
# Assay type: cell-based
# Experimental Parameters: Homo sapiens, MOLM-13, 72 h, MOLM-13 cells, compound alone (without gilteritinib), three days, CellTiter-Glo; read-out: MOLM-13 IC50
Assay Endpoint: IC50

Compound	Result
O=C1CCC(N2C(=O)c3ccc(NC4CC(CCCn5cc(-c6cnc7ccccc7n6)cn5)C4)cc3C2=O)C(=O)N1 (stereo not shown)	> 1000 nM
C[C@H]1CN(c2ccc3ncc(-c4cnn([C@H]5C[C@H](CCCNc6ccc7c(c6)C(=O)N(C6CCC(=O)NC6=O)C7=O)C5)c4)nc3c2)CCN1C (stereo partly shown)	10 to 100 nM
CC(C)(CCCNc1ccc2c(c1)C(=O)N(C1CCC(=O)NC1=O)C2=O)C(=O)N1CCC(n2cc(-c3cnc4ccccc4n3)cn2)CC1 (stereo not shown)	> 1000 nM
Cc1c(-c2cnc3ccccc3n2)cnn1CCCCCCNc1ccc2c(c1)C(=O)N(C1CCC(=O)NC1=O)C2=O (stereo not shown)	> 1000 nM
O=C1CCC(N2C(=O)c3ccc(NC[C@H]4C[C@H](n5cc(-c6cccc(C7CNC7)n6)c(C6CC6)n5)C4)cc3C2=O)C(=O)N1 (stereo partly shown)	> 1000 nM

query: Name the reported IC50 value associated with the compound O=C1CCC(N2C(=O)c3ccc(NCCC[C@H]4C[C@H](n5cc(-c6cnc7c(Cl)cccc7n6)cn5)C4)cc3C2=O)C(=O)N1 (stereo partly shown)
result: > 1000 nM

query: Then O=C1CCC(N2C(=O)c3ccc(NC[C@H]4C[C@H](n5cc(-c6cccnc6)c(C6CC6)n5)C4)cc3C2=O)C(=O)N1 (stereo partly shown) ?
result: 100 to 1000 nM

query: Then O=C1CCC(N2Cc3cc(CNC(=O)C45CC(C(=O)N6CCC(n7cc(-c8cnc9ccccc9n8)cn7)CC6)(C4)C5)ccc3C2=O)C(=O)N1 (stereo not shown) ?
result: 10 to 100 nM

query: Then Cc1cccc(-c2cnn([C@H]3C[C@H](CNc4ccc5c(c4)C(=O)N(C4CCC(=O)NC4=O)C5=O)C3)c2)n1 (stereo partly shown) ?
result: > 1000 nM

query: Then O=C1CCC(N2C(=O)c3ccc(NCCCCCC(=O)N4CCC(n5cc(-c6ccccn6)cn5)CC4)cc3C2=O)C(=O)N1 (stereo not shown) ?
result: 100 to 1000 nM

query: Then Cc1cccc2nc(-c3cnn(CCCCCCNc4ccc5c(c4)C(=O)N(C4CCC(=O)NC4=O)C5=O)c3)cnc12 (stereo not shown) ?
result: 10 to 100 nM

query: Then O=C1CCC(N2Cc3c(Nc4ccnc(Nc5cccc(N6CCC(n7cc(-c8cnc9ccccc9n8)cn7)CC6)c5)n4)cccc3C2=O)C(=O)N1 (stereo not shown) ?
result: < 10 nM

* * *

# Tested on: MV4;11 cells
# Test Details: Cell viability assay (CellTiter-Glo) in MV4;11 cells, alone or with gilteritinib
# Assay type: cell-based
# Experimental Parameters: Homo sapiens, MV4-11, 72 h, MV4;11 cells, compound with gilteritinib 10 nM, three days, CellTiter-Glo; read-out: MV4; 11 IC50 gilteritinib
pIC50: −log10 of the molar value.
Assay Endpoint: pIC50

Recorded results for 5 compounds are shown here.
Compound	Result
CC(C)n1ccc2c(-c3cn([C@H]4C[C@H](CNc5ccc6c(c5)C(=O)N(C5CCC(=O)NC5=O)C6=O)C4)nc3C3CC3)nccc21 (some centres unmarked)	> 8.00
O=C1CCC(N2C(=O)c3ccc(NCCCCCCn4cc(-c5cnc6cccc(C(F)(F)F)c6n5)cn4)cc3C2=O)C(=O)N1 (centres unmarked)	7.00 to 8.00
O=C1CCC(N2C(=O)c3ccc(NC[C@H]4C[C@H](n5cc(C6CCCCC6O)c(C6CC6)n5)C4)cc3C2=O)C(=O)N1 (some centres unmarked)	> 8.00
O=C1CCC(N2C(=O)c3ccc(NCCCCCCn4cc(-c5cnc6ccc(C7CCOCC7)cc6n5)cn4)cc3C2=O)C(=O)N1 (centres unmarked)	> 8.00
O=C1CCC(N2C(=O)c3ccc(NCCCCCCn4cc(-c5cnc6cc(Br)ccc6n5)cn4)cc3C2=O)C(=O)N1 (centres unmarked)	7.00 to 8.00

query: Please state recorded pIC50 (tested on MV4;11 cells) of C[C@H]1CN(c2ccc3ncc(-c4cnn([C@H]5C[C@H](CCCNc6ccc7c(c6)C(=O)N(C6CCC(=O)NC6=O)C7=O)C5)c4)nc3c2)CCN1 (some centres unmarked)
result: > 8.00

query: Then O=C1CCC(N2C(=O)c3ccc(NCCCCCCn4cc(-c5cnc6ccc(N7CCNCC7)cc6n5)cn4)cc3C2=O)C(=O)N1 (centres unmarked) ?
result: > 8.00

query: Then Cc1cccc(-c2cn([C@H]3C[C@H](CCCNc4ccc5c(c4)C(=O)N(C4CCC(=O)NC4=O)C5=O)C3)nc2C2CC2)n1 (some centres unmarked) ?
result: > 8.00

query: Then Cc1cccc2ncc(-c3cnn(CCCCCCNc4ccc5c(c4)C(=O)N(C4CCC(=O)NC4=O)C5=O)c3)nc12 (centres unmarked) ?
result: 7.00 to 8.00

query: Then CN1CCN(c2ccc3ncc(-c4cn(CCCCCCNc5ccc6c(c5)C(=O)N(C5CCC(=O)NC5=O)C6=O)nc4C4CC4)nc3c2)CC1 (centres unmarked) ?
result: > 8.00

query: Then O=C1CCC(N2Cc3cc(NC(=O)Cc4cccc(N5CCC(n6cc(-c7cnc8ccccc8n7)cn6)CC5)c4)ccc3C2=O)C(=O)N1 (centres unmarked) ?
result: > 8.00

* * *

# Test system: MOLM-13 cells
# Test Details: Cell viability assay (CellTiter-Glo) in MOLM-13 cells, alone or with gilteritinib
# Format: cell-based
# Experimental Parameters: Homo sapiens, MOLM-13, 72 h, MOLM-13 cells, compound alone (without gilteritinib), three days, CellTiter-Glo; read-out: MOLM-13 IC50
IC50: recorded values

Compound	IC50
O=C1CCC(N2C(=O)c3ccc(NCCCCNC(=O)N4CCC(n5cc(-c6cnc7ccccc7n6)cn5)CC4)cc3C2=O)C(=O)N1 (stereo not shown)	> 1000 nM
Cn1ncc2cnc(-c3cn([C@H]4C[C@H](CNc5ccc6c(c5)C(=O)N(C5CCC(=O)NC5=O)C6=O)C4)nc3C3CC3)cc21 (stereo partly shown)	10 to 100 nM
O=C1CCC(N2Cc3c(NC4CCCC(Nc5cccc(N6CCC(c7cccc(Cl)c7)CC6)c5)C4)cccc3C2=O)C(=O)N1 (stereo not shown)	> 1000 nM

query: Name the reported IC50 value associated with the compound CN1CCN(c2ccc3ncc(-c4cn([C@H]5C[C@H](CNc6ccc7c(c6)C(=O)N(C6CCC(=O)NC6=O)C7=O)C5)nc4C4CC4)nc3c2)CC1 (stereo partly shown)
result: 10 to 100 nM

query: Then O=C1CCC(N2Cc3cc(NCCCCCC4(N5CCC(n6cc(-c7cnc8ccccc8n7)cn6)CC5)CC4)ccc3C2=O)C(=O)N1 (stereo not shown) ?
result: > 1000 nM

query: Then O=C1CCC(N2C(=O)c3ccc(NC[C@H]4C[C@H](n5cc(-c6cccnn6)c(C6CC6)n5)C4)cc3C2=O)C(=O)N1 (stereo partly shown) ?
result: > 1000 nM

query: Then CN1CCN(c2cccc3ncc(-c4cnn(C5CCN(C(=O)CCCCCNc6ccc7c(c6)C(=O)N(C6CCC(=O)NC6=O)C7=O)CC5)c4)nc23)CC1 (stereo not shown) ?
result: > 1000 nM

query: Then O=C1CCC(N2C(=O)c3ccc(NC[C@H]4C[C@H](n5cc(-c6cccc(NC7CNC7)n6)c(C6CC6)n5)C4)cc3C2=O)C(=O)N1 (stereo partly shown) ?
result: > 1000 nM

query: Then O=C1CCC(N2C(=O)c3ccc(NCCCCCNc4ncc(-c5cnc6ccccc6n5)s4)cc3C2=O)C(=O)N1 (stereo not shown) ?
result: > 1000 nM

query: Then O=C1CCC(N2C(=O)c3ccc(NCCCCCC(=O)N4CC(Nc5ccccc5)C4)cc3C2=O)C(=O)N1 (stereo not shown) ?
result: > 1000 nM
